Recorded Average % for the following binders
Target: T1, HLA-A*01:01 (human, biotinylated heavy chain)
T1 construct: Conditional HLA class I complex (heavy chain + B2M) first held by a UV-labile peptide; the tested peptide is exchanged in after UV cleavage
Test: UV peptide exchange; HLA class I ELISA
// units = %; emit number, no label

Example entries and their recorded answers appear below.
Exercise: // lookup Average % for SLIAMDSAI [Peptide 3, 9-mer SLIAMDSAI derived from FUS1 (SEQ ID NO: 1001)]
Key: 6.9

Exercise: For YHREKQLIA [Peptide 6, 9-mer YHREKQLIA derived from P22 (SEQ ID NO: 1003)] then?
Key: 5.8

Exercise: For SLYHREKQL [Peptide 4, 9-mer SLYHREKQL derived from P22 (SEQ ID NO: 1003)] then?
Key: 6.6

Exercise: For KQLIAMDSA [Peptide 9, 9-mer KQLIAMDSA derived from P22 (SEQ ID NO: 1003)] then?
Key: 6.3

Next:
Exercise: // lookup Average % for LIAMDSAIT [Peptide 10, 9-mer LIAMDSAIT derived from P22 (SEQ ID NO: 1003)]
Key: 5.8
